Provide the recorded pIC50 for the entries that follow.
- ASSAYED TARGET: PI3K γ (Homo sapiens (Human), UniProt P48736)
- Sequence (P48736 whole entry): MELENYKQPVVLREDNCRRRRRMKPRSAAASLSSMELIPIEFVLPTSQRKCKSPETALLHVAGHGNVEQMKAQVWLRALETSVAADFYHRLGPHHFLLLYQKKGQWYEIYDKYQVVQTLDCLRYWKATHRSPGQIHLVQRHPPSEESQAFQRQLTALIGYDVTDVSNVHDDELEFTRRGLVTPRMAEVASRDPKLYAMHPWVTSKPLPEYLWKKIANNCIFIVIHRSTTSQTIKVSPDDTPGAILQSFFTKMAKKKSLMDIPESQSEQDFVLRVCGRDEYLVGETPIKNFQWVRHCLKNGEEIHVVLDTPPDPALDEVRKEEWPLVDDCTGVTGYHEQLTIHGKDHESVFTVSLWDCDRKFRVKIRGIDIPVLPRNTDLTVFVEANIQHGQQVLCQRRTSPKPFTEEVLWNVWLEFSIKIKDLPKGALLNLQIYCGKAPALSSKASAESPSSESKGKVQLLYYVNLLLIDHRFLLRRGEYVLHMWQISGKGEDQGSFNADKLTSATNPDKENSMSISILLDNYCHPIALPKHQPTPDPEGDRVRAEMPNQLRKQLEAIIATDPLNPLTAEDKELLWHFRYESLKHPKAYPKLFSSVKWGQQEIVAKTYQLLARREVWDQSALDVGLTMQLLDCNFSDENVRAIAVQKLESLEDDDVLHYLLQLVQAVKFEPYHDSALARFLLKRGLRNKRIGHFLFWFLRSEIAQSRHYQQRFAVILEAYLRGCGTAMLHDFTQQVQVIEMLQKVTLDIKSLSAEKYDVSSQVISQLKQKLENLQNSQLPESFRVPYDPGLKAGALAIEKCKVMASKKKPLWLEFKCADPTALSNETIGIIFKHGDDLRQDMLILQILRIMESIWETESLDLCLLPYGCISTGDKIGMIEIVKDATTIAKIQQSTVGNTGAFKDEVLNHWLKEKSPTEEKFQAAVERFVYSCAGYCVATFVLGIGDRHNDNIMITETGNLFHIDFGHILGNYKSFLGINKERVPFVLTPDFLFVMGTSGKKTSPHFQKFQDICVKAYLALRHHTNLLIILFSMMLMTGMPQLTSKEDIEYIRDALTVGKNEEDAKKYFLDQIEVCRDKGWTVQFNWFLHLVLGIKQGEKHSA
- PROTOCOL: PI3K γ inhibition assay
- Type: biochemical
- DETAILS: Table 1; read-out: PI3K γ IC50
pIC50: −log10 of the molar value.

CC(C)N1CCC(n2nc(-c3cc4cc(O)ccc4[nH]3)c3c(N)ncnc32)CC1	< 6.30

# batch size: 2; output pIC50 per entry
1. CC(=O)N1CCC(n2nc(-c3cc4cc(O)cc(Cl)c4[nH]3)c3c(N)ncnc32)CC1
2. Nc1ncnc2c1c(-c1cc3cc(O)ccc3[nH]1)nn2CC(=O)N1CCOCC1

OUTPUT:
["> 7.00", "< 6.30"]

INPUT: Under PI3K γ (Homo sapiens (Human), UniProt P48736): pIC50 value of Nc1ncnc2c1c(-c1cc3cccc(O)c3[nH]1)nn2C1CCCC1 ?
OUTPUT: > 7.00

* * *

- ASSAYED TARGET: mTORC (Homo sapiens (Human), UniProt P42345)
- PROTOCOL: mTOR kinase inhibition assay
- Type: biochemical
- DETAILS: Table 1; read-out: mTORC IC50
ATTRIBUTE MEASURED: IC50

# batch size: 7; output IC50 per entry
1. Nc1ncnc2c1c(-c1cc3cccc(O)c3[nH]1)nn2C1CCCC1
2. Nc1ncnc2c1c(-c1cc3ccc(O)cc3[nH]1)nn2C1CCOCC1
3. CC(C)N1CCC(n2nc(-c3cc4cc(O)cc(Cl)c4[nH]3)c3c(N)ncnc32)CC1
4. CC(=O)N1CCC(n2nc(-c3cc4c(Cl)ccc(O)c4[nH]3)c3c(N)ncnc32)CC1
5. Nc1ncnc2c1c(-c1cc3cc(O)ccc3[nH]1)nn2C1CCN(C(=O)C2CC2)CC1
6. Nc1ncnc2c1c(-c1cc3c(Cl)cccc3[nH]1)nn2C1CCOCC1
7. Nc1ncnc2c1c(-c1cc3cc(O)ccc3[nH]1)nn2C1CCC1

OUTPUT:
["< 10 nM", "< 100 nM", "> 500 nM", "< 5 nM", "< 25 nM", "< 50 nM", "< 25 nM"]

# batch size: 2; output IC50 per entry
1. COCCn1nc(-c2cc3cc(O)ccc3[nH]2)c2c(N)ncnc21
2. Nc1ncnc2c1c(-c1cc3cccc(O)c3[nH]1)nn2C1CCN(C(=O)C2CC2)CC1

OUTPUT:
["< 100 nM", "< 10 nM"]

* * *

- ASSAYED TARGET: mTORC (Homo sapiens (Human))
- PROTOCOL: mTOR kinase inhibition assay
- Assay type: biochemical
- DETAILS: Table 2; compound numbers of Table 3; read-out: IC50 results mTORC
pIC50: −log10 of the molar value.
ATTRIBUTE MEASURED: pIC50

INPUT: Entry CNC(=O)Nc1nc2ccc(-c3nn(C4CCN(C(C)=O)CC4)c4ncnc(N)c34)cc2s1 [Compound 23] has what pIC50?
OUTPUT: ≥ 7.30

* * *

- ASSAYED TARGET: PI3K γ (Homo sapiens (Human), UniProt P48736)
- PROTOCOL: PI3K γ inhibition assay
- Format: biochemical
- DETAILS: Table 2; compound numbers of Table 3; read-out: IC50 results PI3K gamma
ATTRIBUTE MEASURED: IC50

INPUT: Entry CNC(=O)Nc1nc2ccc(-c3nn(C4CCN(C(C)=O)CC4)c4ncnc(N)c34)cc2s1 [Compound 23] has what IC50?
OUTPUT: ≤ 50 nM

* * *

- ASSAYED TARGET: mTORC (Homo sapiens (Human))
- PROTOCOL: mTOR kinase inhibition assay
- Type: biochemical
- DETAILS: Table 1; read-out: mTORC IC50
ATTRIBUTE MEASURED: IC50

Past entries and their recorded results:
Nc1ncnc2c1c(-c1cc3cc(O)ccc3[nH]1)nn2CCN1CCOCC1 [Compound 33]	< 500 nM
COc1cc2cc(-c3nn(C(C)C)c4ncnc(N)c34)[nH]c2cc1Cl [Compound 29]	> 500 nM
Nc1ncnc2c1c(-c1cc3cc(O)ccc3[nH]1)nn2C1CC(O)C1 (stereo not shown) [Compound 54]	< 25 nM

# batch size: 3; output IC50 per entry
1. Nc1ncnc2c1c(-c1cc3cc(O)ccc3[nH]1)nn2C1CC(=O)C1 [Compound 53]
2. Nc1ncnc2c1c(-c1cc3cc(O)ccc3[nH]1)nn2C1CCC(N2CCOCC2)CC1 (stereo not shown) [Compound 57]
3. CC(=O)N1CCC(n2nc(-c3cc4cc(O)cc(Cl)c4[nH]3)c3c(N)ncnc32)CC1 [Compound 70]

OUTPUT:
1: < 100 nM; 2: < 25 nM; 3: < 5 nM

* * *

- ASSAYED TARGET: mTORC (Homo sapiens (Human), UniProt P42345)
- PROTOCOL: mTOR kinase inhibition assay
- Format: biochemical
- DETAILS: Table 1; read-out: mTORC IC50
pIC50: −log10 of the molar value.
Provide the recorded pIC50 for the entries that follow.

CC(=O)N1CCC(n2nc(-c3cc4ccc(O)cc4[nH]3)c3c(N)ncnc32)CC1 [Compound 65]	> 8.00
CNC(=O)CCn1nc(-c2cc3cc(O)ccc3[nH]2)c2c(N)ncnc21 [Compound 43]	< 6.30
CC(C)n1nc(-c2cc3c(O)cccc3[nH]2)c2c(N)ncnc21 [Compound 37]	< 6.30
COc1cccc2cc(-c3nn(C4CCOCC4)c4ncnc(N)c34)[nH]c12 [Compound 63]	> 8.30
CN1CCN(C2CC(n3nc(-c4cc5cc(O)ccc5[nH]4)c4c(N)ncnc43)C2)CC1 (stereo not shown) [Compound 52]	> 6.30

# batch size: 5; output pIC50 per entry
1. Nc1ncnc2c1c(-c1cc3cc(O)ccc3[nH]1)nn2CC(=O)N1CCOCC1 [Compound 34]
2. CC(C)n1nc(-c2cc3cc(O)ccc3[nH]2)c2c(N)nccc21 [Compound 45]
3. CC(=O)N1CCC(n2nc(-c3cc4cc(O)ccc4[nH]3)c3c(N)ncnc32)CC1 [Compound 30]
4. CN1CCN(C2CCC(n3nc(-c4cc5cc(O)ccc5[nH]4)c4c(N)ncnc43)CC2)CC1 (stereo not shown) [Compound 58]
5. COc1cccc2cc(-c3nn(C4CCN(C(=O)C5CC5)CC4)c4ncnc(N)c34)[nH]c12 [Compound 66]

OUTPUT:
< 6.30
< 6.30
> 7.60
< 6.30
< 6.30
